Each recorded value in this set is attributed to patent US20260116991A1.

# TESTED ON: biotinylated labeled human GPC3 protein (produced in-house) (human, UniProt P51654 25-559, limits assumed, biotinylated (Dojindo, Cat. No. LK03); sites not stated)
# PROTOCOL NOTES: ELISA, biotinylated human GPC3 protein
MEASURED ATTRIBUTE: OD450 at 0.53 nM (OD450)
Give a bare numeral; the unit OD450 is implied.

- BINDER: "hAb007LH2L1 (antibody, human IgG1, V domains shown, Humanized F3.81.19; VH H2 + VL L1; expressed as human IgG1) VH: EVQLVQSGAEVKKPGSSVKVSCKASGYTFTDYEMHWVRQAPGQGLEWMGTIDPETGNTAYNQKFKGRVTITADKSTSTAYMELSSLRSEDTAVYYCTRPYSLTYWGQGTLVTVSS VL: DIVMTQTPLSLPVTPGEPASISCRSSQSFVHSNGDTYLQWYLQKPGQSPQLLIYKVSNRFSGVPDRFSGSGSGTDFTLKISRVEAEDVGVYYCFQGSHVPYTFGQGTKLEIK"
  ASSAY RESULT: 2.26
- BINDER: "hAb006LH2L1b (antibody, human IgG1, V domains shown, Humanized F3.38.7; VH H2 + VL L1b; expressed as human IgG1) VH: EVQLVQSGAEVKKPGSSVKVSCKASGYTFTDYEIHWVRQAPGQGLEWMGAIDPKTGNTAYNQKFMGRVTITADKSTSTAYMELSSLRSEDTAVYYCTRYFSFAYWGQGTLVTVSS VL: DIVMTQTPLSLPVTPGEPASISCRSSQTFVHSNANTYLQWYLQKPGQSPQLLIYKVSNRFSGVPDRFSGSGSGTDFTLKISRVEAEDVGVYYCFQGSHVPYTFGQGTKLEIK"
  ASSAY RESULT: 2.41

Enquiry: Record request: OD450 at 0.53 nM value, item hAb003LH1L1a (antibody, human IgG1, V domains shown, Humanized F2.154.1; VH H1 + VL L1a; expressed as human IgG1) VH: EVQLVQSGAEVKKPGSSVKVSCKASGYTFSDYEMHWVRQAPGQGLEWMGTIDPETGNTAYTQKFMDRVTITADKSTSTAYMELSSLRSEDTAVYYCTRGYSFTYWGQGTLVTVSS VL: DIVMTQTPLSLPVTPGEPASISCRSSQNIVHSDGNTYLQWYLQKPGQSPQLLIFKVSNRFSGVPDRFSGSGSGTDFTLKISRVEAEDVGVYYCFQGSHVPFTFGQGTKLEIK
Return: 1.97
